Tested on: B6C3F1 mice, ip Sarcoma M5076, median survival T/C
PROTOCOL: NCI In Vivo Anticancer Drug Screen. Data for tumor model Sarcoma M5076 (intraperitoneal) in B6C3F1 mice
MEASUREMENT PARAMETERS: endpoint: median survival time; dose: 50.0 mg/kg/injection; schedule: Q04DX004 (ip); vehicle: sodium bicarbonate; higher = longer survival
Toxic doses and inconclusive results are not listed.
Some compounds, each annotated with its measured T/C.
MEASURED ENDPOINT: T/C

>>> print(df.to_string())
                                   compound                              study_target    recorded_value
0    Cc1c2ccccc2c(C)c2c1cc(C(=O)O)c1ccccc12  B6C3F1 mice, ip Sarcoma M5076, median survival T/C  113 % of control
1  O=C(NC(Cc1ccc(I)cc1)C(=O)O)c1ccc(Br)cc1 (centres undefined)  B6C3F1 mice, ip Sarcoma M5076, median survival T/C  105 % of control
2  CC(C)N1C(=O)N(Cl)C2C1N(Cl)C(=O)N2Cl (centres undefined)  B6C3F1 mice, ip Sarcoma M5076, median survival T/C  114 % of control
3  Nc1cc2c(cc1Br)-c1c(C(=O)O)cccc1C2O (centres undefined)  B6C3F1 mice, ip Sarcoma M5076, median survival T/C   94 % of control
